molecular target: human glucagon receptor (human, UniProt P47871 26-477); assay: cell-based or functional assay
Sequence (P47871 26-477): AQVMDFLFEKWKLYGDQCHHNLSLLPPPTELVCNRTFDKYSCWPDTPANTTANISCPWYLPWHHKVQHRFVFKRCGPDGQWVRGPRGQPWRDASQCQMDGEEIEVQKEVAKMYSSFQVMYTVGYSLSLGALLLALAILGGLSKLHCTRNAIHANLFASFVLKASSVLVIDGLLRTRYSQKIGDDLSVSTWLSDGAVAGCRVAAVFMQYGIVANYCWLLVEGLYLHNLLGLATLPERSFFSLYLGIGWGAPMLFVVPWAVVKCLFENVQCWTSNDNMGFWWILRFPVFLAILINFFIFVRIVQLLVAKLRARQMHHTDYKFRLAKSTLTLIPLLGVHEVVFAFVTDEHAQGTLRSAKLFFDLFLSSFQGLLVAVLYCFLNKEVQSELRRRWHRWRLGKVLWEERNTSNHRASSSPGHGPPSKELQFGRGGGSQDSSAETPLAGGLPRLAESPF
property: EC50 hGlucagon-R (cAMP) (nM)
Provide the reading as a plain figure in nM.

[[record]]
binder = "HXQGTFTSDLSKQMDSRRAQDFIEWLKRGGPSSGAPPPS (dSer at 2; C-terminal NH2) [SEQ ID NO: 185]"
unit_of_measurement = "nM"
numeric_readout = 0.262

[[record]]
binder = "HXQGTFTSDLSKQMDSRRAQDFIEWLKKGGPSSGAPPPS (dSer at 2; C-terminal NH2) [SEQ ID NO: 186]"
unit_of_measurement = "nM"
numeric_readout = 0.59

[[record]]
binder = "HXQGTFTSDLSKQKESKAAQDFIEWLKAGGPSSGAPPPS (dSer at 2; K(γE-x53) at 14; C-terminal NH2) [SEQ ID NO: 24]"
unit_of_measurement = "nM"
numeric_readout = 0.0098


Find the recorded EC50 hGlucagon-R (cAMP) belonging to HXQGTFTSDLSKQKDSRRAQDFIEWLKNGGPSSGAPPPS (dSer at 2; C-terminal NH2) [SEQ ID NO: 183] and report it. 0.916

Find the recorded EC50 hGlucagon-R (cAMP) belonging to HXQGTFTSDLSKQMDSRRAQDFIEWLKNGGPSSGAPPPS (Aib at 2; C-terminal NH2) [SEQ ID NO: 182] and report it. 0.419

Find the recorded EC50 hGlucagon-R (cAMP) belonging to HXQGTFTSDLSKQKDSKAAQDFIEWLKAGGPSSGAPPPS (dSer at 2; K(γE-x53) at 14; C-terminal NH2) [SEQ ID NO: 30] and report it. 0.007
